Measured values drawn from patent US20240317858A1 for this set.

Reported pKd values are given for each entry in this list.
# target.system: T1, Human CD3εδ Fc heterodimer (Hu CD3ε Fc + CD3δ Fc-HIS) (human, UniProt P07766 22-126; P04234 22-100)
# T1 construct: range 22-126;range 22-100; Made in HEK 293 cells with a heterologous signal peptide; also called Hu CD3εδ-Fc; CD3εδ Fc-HIS heterodimer; not shown: Fc; Fc followed by HIS tag
# T1 sequence (P07766 22-126, stated change not applied, form in doubt, chain 1 of 2): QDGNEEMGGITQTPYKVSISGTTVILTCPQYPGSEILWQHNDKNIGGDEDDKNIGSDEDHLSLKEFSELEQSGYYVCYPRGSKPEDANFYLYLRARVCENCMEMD
# T1 sequence (P04234 22-100, stated change not applied, form in doubt, chain 2 of 2): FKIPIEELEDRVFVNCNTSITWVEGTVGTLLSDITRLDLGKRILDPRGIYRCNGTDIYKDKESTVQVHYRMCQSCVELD
# measurement.description: SPR (Biacore), Fab over immobilized CD3εδ Fc, pH 7.4
# Experimental: Anti-CD3 antibodies A001-A005, V002, V004, V007, V009, V010, V013, and V014-V019 were produced in CHO cells, and Fab fragments were generated from IgG1 antibodies by papain digestion and purification as described in Example 2. Monovalent binding affinity at pH 7.4 and pH 6.0 was measured via surface plasmon resonance (SPR). […]
Scale explanation: pKd corresponds to minus log10 of a concentration expressed in moles per litre.

1) Antibody No. V010 (ADI-70327) Fab (Fab, V domains shown, Fab by papain digestion of the IgG1) VH: QVQLVQSGAEVKKPGASVKVSCKASGFDIKDYYMHWVRQAPGQRLEWIGWIELENDDTVYDAKFQGRVTITRDTSASTAYMELSSLRSEDTAVYYCARDAYGRYFYDVWGQGTLVTVSS VL: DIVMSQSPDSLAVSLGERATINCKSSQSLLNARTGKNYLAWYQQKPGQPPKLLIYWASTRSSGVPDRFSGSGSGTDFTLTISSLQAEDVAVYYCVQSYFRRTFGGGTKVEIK	9.41
2) Antibody No. V015 (ADI-76358) Fab (Fab, V domains shown, Fab by papain digestion of the IgG1) VH: QVQLVQSGAEVKKPGASVKVSCKASGFNIKDYYMHWVRQAPGQRLEWMGWIDLENADTIYDAKFQGRVTITRDTSASTAYMELSSLRSEDTAVYYCARDQYGRYFYDVWGQGTLVTVSS VL: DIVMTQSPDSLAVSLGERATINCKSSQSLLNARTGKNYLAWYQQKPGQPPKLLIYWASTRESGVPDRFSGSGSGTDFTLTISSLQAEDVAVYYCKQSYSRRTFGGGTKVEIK	7.74
3) Antibody No. V013 (ADI-70330) Fab (Fab, V domains shown, Fab by papain digestion of the IgG1) VH: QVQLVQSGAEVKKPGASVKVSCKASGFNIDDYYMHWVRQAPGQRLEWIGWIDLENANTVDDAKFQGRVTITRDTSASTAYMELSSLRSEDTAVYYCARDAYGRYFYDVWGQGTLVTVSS VL: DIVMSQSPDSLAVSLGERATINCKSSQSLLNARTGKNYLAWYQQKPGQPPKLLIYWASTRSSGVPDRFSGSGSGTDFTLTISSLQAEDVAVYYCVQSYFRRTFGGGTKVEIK	9.74
4) Antibody No. V017 (ADI-76360) Fab (Fab, V domains shown, Fab by papain digestion of the IgG1) VH: QVQLVQSGAEVKKPGASVKVSCKASGFNIKDYYMHWVRQAPGQRLEWMGWIDLENADTIYDAKFQGRVTITRDTSASTAYMELSSLRSEDTAVYYCGRDAYGRYFYDVWGQGTLVTVSS VL: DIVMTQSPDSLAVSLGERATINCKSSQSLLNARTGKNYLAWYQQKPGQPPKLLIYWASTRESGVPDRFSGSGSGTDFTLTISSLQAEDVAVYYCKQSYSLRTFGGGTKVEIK	7.72

Could you now consider this next binder?
Query string: pKd lookup needed for Antibody No. V018 (ADI-76361) Fab (Fab, V domains shown, Fab by papain digestion of the IgG1) VH: QVQLVQSGAEVKKPGASVKVSCKASGFDIKDYYMHWVRQAPGQRLEWMGWIDLEEGNTIYDAKFQGRVTITRDTSASTAYMELSSLRSEDTAVYYCARDAYGRYFYDVWGQGTLVTVSS VL: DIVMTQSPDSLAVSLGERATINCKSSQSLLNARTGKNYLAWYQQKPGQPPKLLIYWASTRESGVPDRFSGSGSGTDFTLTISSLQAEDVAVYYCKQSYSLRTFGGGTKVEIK , thanks.
Result string: 7.38
